Target: T1, Biotin PSGL-1(42-62) peptide, unmodified (human, C-terminal Lys-biotin)
T1 construct: Residues 42-62 followed by GGGK-biotin; also called WT; wild-type
T1 peptide: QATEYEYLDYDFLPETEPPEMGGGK
Test: ELISA, plate-bound target
quantity: EC50 (pM)
All answers are understood in pM, so give the number only.

Illustrative cases are given below, each with its answer.
[
  {
    "binder": "19I01 (antibody, V domains shown, From mouse immunisation; only variable domains given; also called 19101) VH: EVQLVESGGGLVKPGGSRKLSCAASGFTFSDYGMHWVRQAPEKGLEWVAYISSGSSTIYYADTVKGRFTISRDNAKNTLFLQMTSLRSEDTAMYYCARGVDGYWGQGTTLTVSS VL: DVVMTQTPLSLPVSLGDQASISCRSSQSLVHSNGNTYLHWYLQKPGQSPKFLIYKVSNRFSGVPDRFSGSGSGTDFTLKISRVEAEDLGVYFCSQTTHVPLTFGAGTKLELK",
    "unit_spec": "pM",
    "data_value": 920
  },
  {
    "binder": "43B6 (antibody, V domains shown, Control anti-PSGL-1 mAb, recombinant; only variable domains given; also called 43B3) VH: EVQLQQSGPDLVKPGALVKISCKASGYSFTAYYIHWVKQSHGKSLEWIGRVNPNTGGTSYNPKFKGKAILNVDKSSSTAYMELRSLTSEDSAVYYCARSGSPYYRYDDWGQGTTLTVSS VL: ENVLTQSPAIMSASPGEKVTMTCRASSTVNSTYLHWFQQKSGASPKLWIYGSSNLASGVPARFSGSGSGTSYSLTISSVEAEDAATYYCQQYSGYPLTFGAGTTLELK",
    "unit_spec": "pM",
    "data_value": 30
  }
]

Next item in the queue.
INPUT: Quick one: EC50 for 18F02 (antibody, V domains shown, From mouse immunisation; only variable domains given) VH: QVQLQQPGAELVKPGASVKLSCKASGYTFTSYWMHWVKQRPGQGLEWIGMIHPNSGRTNYNEKFKSKATLTVDKSSSTAYMQLSSLTSEDSAVYYCARSDYWGQGTTLTVSS VL: DIVMTQAAFSNPVTLGTSASISCRSSKSLLHSDGITYLYWFLQRPGQSPQLLIYRMSNLASGVPDRFSGSGSGTDFTLRISRVEAEDVGVYYCAQMLEFPRTFGGGTKLEIK ?
OUTPUT: 680
